Reference for the values: PubChem BioAssay (NCI)

Tested on: NCI-H460 lung
Assay: NCI tumour cell line growth inhibition, 48 h
*1 amine or outer side, *2 acyl side, *3 side chain or, on linkers, in order; H or OH if unused. Where a SMILES comes first, the peptide text is derived from it. [ ]: non-standard residue; d: D form. The star is where a group is joined. ξ: configuration not given here. X27 = O=C([C@H]1CCC[C@H]1N[*:1])[*:2]; ξW = NC(Cc1c[nH]c2ccccc12)C(=O)O; ξF = NC(Cc1ccccc1)C(=O)O; Boc = CC(C)(C)OC(=O)*; ξK = NCCCCC(N)C(=O)O; ξT = CC(O)C(N)C(=O)O; tBu = CC(C)(C)*
Catalogue of TGI values

Per the records, this compound ( C=C(C)C1CC/C(C)=C/CCC2(C)OC2CC/C(CO)=C\C1O (configuration not stated) ) has TGI equal to > 100 µM

Per the records, this compound ( "S=C(NNC1=NCCCCN1)Nc1ccc(Cl)cc1" ) has TGI equal to > 100 µM

Per the records, this compound ( O=C(O)CSC(CC1(c2ccc(Cl)cc2)NC(=O)CS1)c1ccc(Cl)cc1 (configuration not stated) ) has TGI equal to > 100 µM

Per the records, this compound ( CC(OC(C)(C)C)C1NC(=O)C(CCCCNC(=O)OC(C)(C)C)NC(=O)C(Cc2c[nH]c3ccccc23)NC(=O)C(Cc2ccccc2)NC(=O)[C@H]2CCC[C@H]2NC(=O)C(Cc2ccccc2)NC1=O (some centres not stated) (cyclo([X27][ξF][ξW][ξK](Boc)[ξT](tBu)[ξF])) ) has TGI equal to > 100 µM

Per the records, this compound ( CCOC(=O)CCC(NC(=O)Cc1ccc(Nc2nc3ccccc3nc2-c2cccs2)cc1)C(=O)OCC (configuration not stated) ) has TGI equal to > 100 µM

Per the records, this compound ( "CC[C@H](NC(=O)[C@H]1CCCCN1C)C(=O)N(C)[C@H](C[C@@H](OC(C)=O)c1nc(C(=O)N[C@@H](Cc2ccccc2)C[C@H](C)C(=O)O)cs1)C(C)C" ) has TGI equal to > 14.3 µM

Okay, next one:
Per the records, this compound ( "C[C@]12CCc3nc(Nc4cccc(O)c4)sc3C1=CC[C@@H]1[C@@H]2CC[C@]2(C)/C(=N\NC(N)=S)CC[C@@H]12" ) has TGI equal to 4.05 µM

----------
Test system: DLD-1 colon
Assay: NCI tumour cell line growth inhibition, 48 h
assay.readout: TGI

Some entries whose results are on file:
Per the records, this compound ( "O=C(C=C1SCCS1)/C=C\c1ccc(Cl)cc1" ) has TGI equal to > 100 µM

Per the records, this compound ( CC12OOC(c3ccccc31)c1c2ccc2ccccc12 (stereo not given) ) has TGI equal to 3.06 µM

Per the records, this compound ( CC1=Nc2ccccc2NC(c2ccoc2)C1 (stereo not given) ) has TGI equal to > 100 µM

Per the records, this compound ( "CN(C)c1ccc(/C=C/C(=O)[O-])cc1.CN(C)c1ccc(/C=C/C(=O)[O-])cc1.[Cu+2]" ) has TGI equal to > 100 µM

Per the records, this compound ( "N.N.NCCCCCN.O=C([O-])CCl.O=C([O-])CCl.O=C([O-])CCl.O=C([O-])CCl.[Pt+4].[Pt+4]" ) has TGI equal to > 100 µM

More entries:
Per the records, this compound ( COC(=O)C(Cc1nc2ccccc2[nH]c1=O)/C(=N\NC(C)(C)C)C(=O)Nc1c(C)cc(Br)cc1C (stereo not given) ) has TGI equal to 48.8 µM

Per the records, this compound ( "COc1c(C)cc(O)cc1C=O" ) has TGI equal to > 100 µM

Per the records, this compound ( CN1C(=O)CCC2[C@@H]3CC=C4C[C@@H](O)CC[C@]4(C)C3CC[C@@]21C (stereo not given in full) ) has TGI equal to > 100 µM

Per the records, this compound ( COC1OC(CO)C(O)C(OC(C)=O)C1NC(=O)N(CCCl)N=O (stereo not given) ) has TGI equal to > 100 µM

Per the records, this compound ( "COc1ccc(/C=N/NC(=O)c2sc(=S)n(-c3ccccc3)c2N)cc1" ) has TGI equal to > 100 µM
